- ASSAY_TARGET: Phospholipase D2 (Homo sapiens)
- Sequence (O14939 whole entry): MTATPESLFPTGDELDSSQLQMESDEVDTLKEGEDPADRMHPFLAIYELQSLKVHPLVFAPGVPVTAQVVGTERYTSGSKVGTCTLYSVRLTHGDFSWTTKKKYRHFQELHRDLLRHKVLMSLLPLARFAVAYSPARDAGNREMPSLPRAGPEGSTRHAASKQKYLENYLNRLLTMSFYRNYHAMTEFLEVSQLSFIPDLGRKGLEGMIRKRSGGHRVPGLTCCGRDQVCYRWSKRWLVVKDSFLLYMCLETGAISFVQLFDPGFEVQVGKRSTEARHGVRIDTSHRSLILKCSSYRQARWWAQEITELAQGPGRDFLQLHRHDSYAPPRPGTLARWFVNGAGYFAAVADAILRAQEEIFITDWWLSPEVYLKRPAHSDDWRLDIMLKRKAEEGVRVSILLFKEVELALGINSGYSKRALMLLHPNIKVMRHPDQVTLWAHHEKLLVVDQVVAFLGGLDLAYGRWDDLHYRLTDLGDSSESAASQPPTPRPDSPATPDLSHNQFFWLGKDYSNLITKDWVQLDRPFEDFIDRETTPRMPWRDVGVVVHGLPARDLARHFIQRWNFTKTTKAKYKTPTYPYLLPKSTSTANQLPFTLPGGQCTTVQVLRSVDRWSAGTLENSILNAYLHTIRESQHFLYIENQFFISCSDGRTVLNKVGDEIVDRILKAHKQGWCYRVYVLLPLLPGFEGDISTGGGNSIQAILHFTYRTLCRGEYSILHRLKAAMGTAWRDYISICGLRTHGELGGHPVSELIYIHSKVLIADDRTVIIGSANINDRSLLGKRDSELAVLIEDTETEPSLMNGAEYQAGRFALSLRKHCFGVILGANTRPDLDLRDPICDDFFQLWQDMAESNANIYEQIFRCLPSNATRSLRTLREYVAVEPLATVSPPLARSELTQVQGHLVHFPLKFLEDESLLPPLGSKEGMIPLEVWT
- PROTOCOL_DESCRIPTION: Inhibition of GFP-labeled PLD2 in human HEK293 cells
EXPERIMENTAL_READOUT: IC50 (nM)
Give just the numeric value; nM need not be written.

Check out these entries, answers already filled in.
{"QUERY_SMILES": "C[C@@H](CN1CCC2(CC1)C(=O)NCN2c1ccccc1)NC(=O)[C@H]1C[C@@H]1c1ccccc1", "READOUT_NUMBER": 30000}
{"QUERY_SMILES": "O=C(NCCN1CCC2(CC1)C(=O)NCN2c1ccccc1)c1cc2ccccc2s1", "READOUT_NUMBER": 30}
{"QUERY_SMILES": "O=C(C#Cc1ccccc1)NCCN1CCC2(CC1)C(=O)NCN2c1ccccc1", "READOUT_NUMBER": 1600}
{"QUERY_SMILES": "C[C@@H](CN1CCC2(CC1)C(=O)NCN2c1ccccc1)NC(=O)c1ccc(F)c(F)c1", "READOUT_NUMBER": 200}
{"QUERY_SMILES": "Cc1cccc(C(=O)N[C@@H](C)CN2CCC3(CC2)C(=O)NCN3c2ccccc2)c1", "READOUT_NUMBER": 27000}

Hello, I am looking for reported IC50 with Phospholipase D2 (Homo sapiens) for `COc1cc(C(=O)NCCN2CCC3(CC2)C(=O)NCN3c2ccccc2)ccc1N` . Could you help? 550

====

- ASSAY_TARGET: Phospholipase D1 (Homo sapiens, UniProt Q13393)
- Sequence (Q13393 whole entry): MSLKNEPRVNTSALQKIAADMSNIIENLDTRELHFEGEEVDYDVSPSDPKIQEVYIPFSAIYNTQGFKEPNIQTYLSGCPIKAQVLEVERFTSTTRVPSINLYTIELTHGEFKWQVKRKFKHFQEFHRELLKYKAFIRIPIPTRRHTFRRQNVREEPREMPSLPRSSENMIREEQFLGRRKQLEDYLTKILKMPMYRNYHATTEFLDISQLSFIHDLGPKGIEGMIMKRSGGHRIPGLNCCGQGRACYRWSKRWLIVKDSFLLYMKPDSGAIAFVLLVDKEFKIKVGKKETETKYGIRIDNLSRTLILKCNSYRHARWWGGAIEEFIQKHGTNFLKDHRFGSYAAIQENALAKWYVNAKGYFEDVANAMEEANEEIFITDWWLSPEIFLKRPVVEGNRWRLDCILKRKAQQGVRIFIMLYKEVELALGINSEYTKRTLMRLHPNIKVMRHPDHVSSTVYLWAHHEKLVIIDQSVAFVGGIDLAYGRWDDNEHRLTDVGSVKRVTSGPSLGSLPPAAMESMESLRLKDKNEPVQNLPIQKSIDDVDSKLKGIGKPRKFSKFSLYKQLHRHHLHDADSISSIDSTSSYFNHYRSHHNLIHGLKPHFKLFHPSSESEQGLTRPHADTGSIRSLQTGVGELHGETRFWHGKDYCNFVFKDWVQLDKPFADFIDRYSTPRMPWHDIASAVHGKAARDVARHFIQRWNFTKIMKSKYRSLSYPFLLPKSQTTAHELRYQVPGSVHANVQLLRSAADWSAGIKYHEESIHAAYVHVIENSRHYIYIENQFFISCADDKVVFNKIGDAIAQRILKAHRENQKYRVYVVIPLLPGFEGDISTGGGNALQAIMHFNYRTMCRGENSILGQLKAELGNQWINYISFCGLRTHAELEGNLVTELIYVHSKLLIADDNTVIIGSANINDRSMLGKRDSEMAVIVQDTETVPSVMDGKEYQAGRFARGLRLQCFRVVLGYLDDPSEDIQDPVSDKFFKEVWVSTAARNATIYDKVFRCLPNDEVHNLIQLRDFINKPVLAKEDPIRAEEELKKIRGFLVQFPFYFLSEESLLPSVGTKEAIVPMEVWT
- PROTOCOL_DESCRIPTION: Inhibition of PLD1 in human Calu1 cells
Please respond with fulfilled when measured IC50 is strictly beneath 3 µM, and with not fulfilled in all other cases.

Check out these entries, answers already filled in.
{"COMPOUND": "O=C(NCCN1CCC2(CC1)C(=O)NCN2c1ccccc1)c1cc2ccccc2s1", "GROUP_LABEL": "fulfilled"}
{"COMPOUND": "C[C@@H](CN1CCC2(CC1)C(=O)NCN2c1ccccc1)NC(=O)c1ccc(F)c(F)c1", "GROUP_LABEL": "fulfilled"}
{"COMPOUND": "Cc1cccc(C(=O)N[C@@H](C)CN2CCC3(CC2)C(=O)NCN3c2ccccc2)c1", "GROUP_LABEL": "not fulfilled"}
{"COMPOUND": "O=C(NCCN1CCC2(CC1)C(=O)NCN2c1ccccc1)c1cnc2ccccc2n1", "GROUP_LABEL": "not fulfilled"}
{"COMPOUND": "C[C@@H](CN1CCC2(CC1)C(=O)NCN2c1ccccc1)NC(=O)[C@H]1C[C@@H]1c1ccccc1", "GROUP_LABEL": "fulfilled"}
{"COMPOUND": "O=C(C#Cc1ccccc1)NCCN1CCC2(CC1)C(=O)NCN2c1ccccc1", "GROUP_LABEL": "fulfilled"}

IC50 strictly < 3 µM for this compound? `COc1cc(C(=O)NCCN2CCC3(CC2)C(=O)NCN3c2ccccc2)ccc1N` not fulfilled

Item O=C(NCCN1CCC2(CC1)C(=O)NCN2c1ccccc1)[C@H]1C[C@@H]1c1ccccc1 (relative stereo) : IC50 beneath 3 µM, strictly? not fulfilled
